Target: Androgen receptor (Homo sapiens)
Sequence (P10275 whole entry): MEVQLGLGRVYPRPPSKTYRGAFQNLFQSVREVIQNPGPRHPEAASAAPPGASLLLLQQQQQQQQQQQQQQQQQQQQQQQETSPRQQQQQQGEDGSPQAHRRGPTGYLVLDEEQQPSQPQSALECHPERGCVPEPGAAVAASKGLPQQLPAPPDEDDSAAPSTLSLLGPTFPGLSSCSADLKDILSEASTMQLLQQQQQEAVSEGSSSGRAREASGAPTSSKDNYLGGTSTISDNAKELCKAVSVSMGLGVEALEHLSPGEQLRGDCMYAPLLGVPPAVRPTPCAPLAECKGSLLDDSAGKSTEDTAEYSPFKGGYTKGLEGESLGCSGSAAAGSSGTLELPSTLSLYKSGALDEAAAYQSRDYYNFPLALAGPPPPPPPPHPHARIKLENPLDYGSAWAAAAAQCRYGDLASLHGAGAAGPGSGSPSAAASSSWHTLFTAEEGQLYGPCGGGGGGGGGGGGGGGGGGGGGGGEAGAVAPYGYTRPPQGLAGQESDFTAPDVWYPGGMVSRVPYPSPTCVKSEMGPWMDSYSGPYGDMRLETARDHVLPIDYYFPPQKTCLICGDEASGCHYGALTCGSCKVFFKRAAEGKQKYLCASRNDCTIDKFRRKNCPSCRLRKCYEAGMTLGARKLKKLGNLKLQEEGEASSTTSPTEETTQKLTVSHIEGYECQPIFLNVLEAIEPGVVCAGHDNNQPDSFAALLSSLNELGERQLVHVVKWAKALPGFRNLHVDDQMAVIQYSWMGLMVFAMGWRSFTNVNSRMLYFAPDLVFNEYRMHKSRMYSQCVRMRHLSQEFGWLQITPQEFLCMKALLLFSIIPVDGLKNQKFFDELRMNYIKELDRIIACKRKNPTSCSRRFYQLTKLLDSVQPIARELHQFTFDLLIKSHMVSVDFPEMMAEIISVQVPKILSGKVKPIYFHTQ
Experiment: Transcriptional activity at human androgen receptor BF3 site stably transfected in eGFP-expressing human LNCAP cells after 3 days by fluorometric analysis
pIC50: −log10 of the molar value.
parameter: pIC50

{"sample_smiles": "CCOC(=O)c1ccc2c(c1)[C@H]1C=CC[C@@H]1[C@@H](c1ccccc1)N2", "test_target": "Androgen receptor (Homo sapiens)", "parameter": "pIC50", "measured": 6.05}
{"sample_smiles": "COC(=O)c1ccc([C@H]2Nc3ccc(C(C)=O)cc3[C@H]3C=CC[C@H]32)cc1", "test_target": "Androgen receptor (Homo sapiens)", "parameter": "pIC50", "measured": 5.92}
{"sample_smiles": "NS(=O)(=O)c1ccc2c(c1)[C@@H]1C=CC[C@@H]1[C@@H](c1ccc(Br)cc1)N2", "test_target": "Androgen receptor (Homo sapiens)", "parameter": "pIC50", "measured": 6.30}
